tested on: IGROV1 complex spheroids (HUVEC, MSC), viability % test/control; experiment: Anticancer human tumor IGROV1 cell line growth inhibition [GQUAD]; settings: second compound 1 µM; first compound 0.316 µM; hits give low values;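 note: spheroids exposed to compounds for 7 days before readout; 100% = DMSO vehicle control viability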
Values of viability, T/C strictly less than 3% map to Fulfilled, and values of at least 3% map to Not fulfilled.

Examples from the recorded data:
>>> category_label("Cc1[nH]c2ccccc2c1CCNCc1ccc(/C=C/C(=O)NO)cc1 + Cc1[nH]c2ccc(F)cc2c1-c1nc2c3cccnc3c3ncccc3c2[nH]1")
"Fulfilled"
>>> category_label("CC1COCCN1c1cc(C2(O)CC3CCC(C2)O3)c2cnn(-c3ccn[nH]3)c2n1 (stereo unspecified) + Cc1[nH]c2ccc(F)cc2c1-c1nc2c3cccnc3c3ncccc3c2[nH]1")
"Not fulfilled"

Input: I wonder whether Nc1ccn(C2OC(CO)C(O)C2(F)F)c(=O)n1 (stereo unspecified) + CN(C)c1ccc(Nc2c3ccc(NC(=O)CCN4CCCC4)cc3nc3cc(NC(=O)CCN4CCCC4)ccc23)cc1 has viability, T/C below 3%. Can you tell?
Output: Not fulfilled

Input: I wonder whether CC(=O)O[C@H]1C(=O)[C@@]2(C)[C@H]([C@H](OC(=O)c3ccccc3)[C@]3(O)C[C@H](OC(=O)[C@H](O)[C@@H](NC(=O)c4ccccc4)c4ccccc4)C(C)=C1C3(C)C)[C@]1(OC(C)=O)CO[C@@H]1C[C@@H]2O + CN(C)c1ccc(Nc2c3ccc(NC(=O)CCN4CCCC4)cc3nc3cc(NC(=O)CCN4CCCC4)ccc23)cc1 has viability, T/C below 3%. Can you tell?
Output: Not fulfilled

Input: I wonder whether CC[C@@]1(O)C(=O)OCc2c1cc1n(c2=O)Cc2cc3c(CN(C)C)c(O)ccc3nc2-1 + Cc1[nH]c2ccc(F)cc2c1-c1nc2c3cccnc3c3ncccc3c2[nH]1 has viability, T/C below 3%. Can you tell?
Output: Not fulfilled

Input: I wonder whether CCc1c2c(nc3ccc(O)cc13)-c1cc3c(c(=O)n1C2)COC(=O)[C@]3(O)CC + Cc1cnc(CNC(=O)c2c(=O)c3ccc(N4CCCN(C)CC4)nc3n3c2sc2ccccc23)cn1 has viability, T/C below 3%. Can you tell?
Output: Fulfilled

====

Entries and their measured viability, T/C follow.
test system: IGROV1 complex spheroids (HUVEC, MSC), viability % test/control; test: Anticancer human tumor IGROV1 cell line growth inhibition [GQUAD]; details: second compound 10 µM; first compound 0.1 µM; hits give low values;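 note: spheroids exposed to compounds for 7 days before readout; 100% = DMSO vehicle control viability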

Some compounds with known viability, T/C results, for comparison:
>>> measured_value("O=C(NO)c1cnc(N2CCN(S(=O)(=O)c3ccc4ccccc4c3)CC2)nc1 + CN(C)c1ccc(Nc2c3ccc(NC(=O)CCN4CCCC4)cc3nc3cc(NC(=O)CCN4CCCC4)ccc23)cc1")
"14.4%"
>>> measured_value("C#Cc1c(F)ccc2cc(O)cc(-c3ncc4c(N5CC6CCC(C5)N6)nc(OCC56CCCN5CC(F)C6)nc4c3F)c12 (stereo not given) + Cc1[nH]c2ccc(F)cc2c1-c1nc2c3cccnc3c3ncccc3c2[nH]1")
"3.1%"
>>> measured_value("O=C(c1cc(Cc2n[nH]c(=O)c3ccccc23)ccc1F)N1CCN(C(=O)C2CC2)CC1 + Cc1[nH]c2ccc(F)cc2c1-c1nc2c3cccnc3c3ncccc3c2[nH]1")
"3.02%"
>>> measured_value("COc1ccc([C@@H](O)c2cc(-c3ncnc4cc(N5CCOCC5)ccc34)c(F)cc2Cl)nn1 + CN(C)c1ccc(Nc2c3ccc(NC(=O)CCN4CCCC4)cc3nc3cc(NC(=O)CCN4CCCC4)ccc23)cc1")
"52.6%"

We next turn to a different compound, shown below.
Input: Could you please provide reported viability, T/C for COc1ncnc(C2CC2)c1-c1ncc2cnn(Cc3ccc(-c4nc(C(F)(F)F)cn4C(C)C)cc3)c2n1 + Cc1[nH]c2ccc(F)cc2c1-c1nc2c3cccnc3c3ncccc3c2[nH]1 ? Thanks!
Output: 4.19%

Data origin, for the record: PubChem BioAssay AID2060486
